Here, each record is paired with measured inhibition data.
biological target: L-lactate dehydrogenase (Plasmodium falciparum (isolate CDC / Honduras)); test: PfLDH activity inhibition – cell lysate, 3D7 strain, counter-screen for P. falciparum growth inhibition project (AID 2304);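 further: 0% = vehicle and 100% = reference inhibitor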; conditions: P. falciparum 3D7 crude extract, LDH APAD/NBT absorbance; at 2 µM; stronger effect = higher value
Quick reminder: number only, in %, skip the unit.

Some molecules with known inhibition results, for comparison:
Cc1sc(NC(=O)c2ccc([N+](=O)[O-])cc2Cl)c(C(N)=O)c1C	1
C=CCNC(=O)C(C)c1ccc2cc(OC)ccc2c1 (stereo not drawn)	1
CCOc1cc2ncnc(Nc3ccc(OCc4c(Cl)cccc4Cl)c(OC)c3)c2cc1OCC	5
CCCN(CCC)S(=O)(=O)c1ccc(C(=O)Nc2nc3ccc(-c4cc(=O)[nH]c(Nc5ccccc5Cl)n4)cc3[nH]2)cc1	-4

Lab note: measured inhibition of CS(=O)(=O)Nc1cccc(-c2cnc3[nH]cc(-c4cccc(CN)c4)c3c2)c1 was -2

Lab note: measured inhibition of CN1CCC(NC(=O)c2cccc(Nc3cc(Nc4cccc(Br)c4)ncn3)c2)CC1 was 1

Lab note: measured inhibition of COc1ccc(C2CC(c3cccs3)=NN2C(=O)COc2cccc(C(C)=O)c2)cc1OC (stereo not drawn) was -2

Lab note: measured inhibition of NC1CCN(CCNCc2cccc(-c3ccc(-c4nc5ccc(C(F)(F)F)cc5[nH]4)cc3)c2)C1 (stereo not drawn) was 1

Lab note: measured inhibition of CN1CCC(N2CCN(Cc3ccc(-c4cccc(-c5nc6ccc(F)cc6[nH]5)c4)cc3)CC2)CC1 was -1
